- target_or_system: pooled human IgG (human IgG1, 2, 3 and 4)
recorded_endpoint: Enzyme Activity Endpoint Assay (purified): scIgG (ng/µL)

protein | observed_value
PRT-475 (protein) MVTSVWTKGVTPPTNFRKIVDGNIAYYHAPYVANQGWYDITKTFNGKDDLLCGAATAGNMLHWWFDQNKEQIENYLKKHPEKQKINFNGEQMFDVKEAIDTKDSQLDSKLFEYFKEKAFPYLSTKHLGVFPDHVIDMFINGYRLSLTNHGPTPVKRGSKDPRGGIFDAVFTRGDQSKLLTNRHDLKNKTLKEISDLIKQELTEGKALGISHTYANVRINHVINLWGADFDAEGNLEAIYVTDSDSNASIGMKKYFVGVNSNGKVAISAKEIEEDNIGAQVLGLFTLSTGQDIWNQTNLEHHHHHH | 0
